system: HCT-116 colon; assay: NCI tumour cell line growth inhibition, 48 h
Entries and their measured TGI follow.

The following molecules have reported results that may help.
Any idea what TGI was measured for COC(=O)[C@@]12CC(C(C)C)[C@H]3CC(C(=O)C=C1OC)[C@H]32 (some centres undefined) ? > 100 µM

Any idea what TGI was measured for CCOC(=O)CC(NC(=O)c1[nH]cnc1/N=N/N(C)C)C(=O)OCC (centres undefined) ? > 100 µM

Any idea what TGI was measured for O=[N+]([O-])c1ccc(-n2nc3ccc4c(no[n+]4[O-])c3n2)cc1 ? > 100 µM

Any idea what TGI was measured for CC(C)=CCC[C@@H](C)C1=C(O)C(Nc2ccccc2Cl)=C(C)C(=O)C1=O ? > 50.9 µM

Any idea what TGI was measured for CCOC(=O)NC(Nc1ccc(F)cc1)(C(=O)OCC)C(F)(F)F (centres undefined) ? > 100 µM

***
Any idea what TGI was measured for COC(=O)c1cc(NC(=O)Cc2c[nH]c3ccccc23)cn1C ? > 100 µM

Any idea what TGI was measured for CCC1(c2ccc(N3C(=O)c4cc(OC)c(OC)cc4C3=O)cc2)CCC(=O)NC1=O (centres undefined) ? > 10 µM

Any idea what TGI was measured for CC(=O)OCC1OC(n2c3c(c(-c4ccc(Cl)cc4)c(C#N)c2=S)CCCC3)C(OC(C)=O)C(OC(C)=O)C1OC(C)=O (centres undefined) ? > 100 µM

Any idea what TGI was measured for CCN(CC)CSc1nc2ccccc2[nH]1 ? > 100 µM
